This section presents molecules with their documented melting point values.

>>> data_value("CSc1ccc2c(c1)C(Cl)c1ccccc1C=C2 (stereo not given)")
"135 to 138 °C"
>>> data_value("COC(=O)C(O)Cc1ccc(O)cc1 (stereo not given)")
"42 to 43 °C"
>>> data_value("Cc1ccc(C(=O)C2=C(O)C(=O)N(c3ncc(S(=O)(=O)N4CCOCC4)s3)C2c2ccc(C(C)C)cc2)cc1 (stereo not given)")
"247 to 252 °C"
>>> data_value("CN1Cc2c(C#CC(O)(C3CC3)C3CC3)ncn2-c2cccc(Cl)c2C1=O")
"179 to 181 °C"

stdin: What does the data say about its melting point? Entry: `COc1cc2c(Oc3ccc(Cl)cc3F)ncnc2cc1OCc1ccncc1`
stdout: 197 to 198 °C

* * *

Listed compounds paired with reported melting point

Some compounds with known melting point results, for comparison:
>>> data_value("O=C(O)c1cc(Cl)ccc1SSc1ccc(Cl)cc1C(=O)O")
"320 to 324 °C"
>>> data_value("CN1CCN(C(=O)Oc2ccc([N+](=O)[O-])cc2)CC1")
"134 to 135 °C"
>>> data_value("N#Cc1c(OCCO)cccc1[N+](=O)[O-]")
"140 to 142 °C"

stdin: Recorded melting point of `O=[N+]([O-])c1cc(C(F)(F)F)ccc1Sc1ccc(O)cc1` , please.
stdout: 131 to 134 °C

stdin: Which measured melting point value corresponds to COC(=O)N1C(=S)NC(C)=C(C(=O)OC(C)C)C1c1cccc([N+](=O)[O-])c1 (configuration not stated) ?
stdout: 130 to 132 °C

stdin: Quick check: melting point of `N#Cc1ccc2c(c1)C(=O)OC2` ?
stdout: 195 to 196 °C

stdin: Given the entry `CCONC(=O)c1cc(NCC2CCN(Cc3ccccc3)CC2)ccn1` , report its measured melting point.
stdout: 125 to 130 °C

stdin: Reported melting point for O=C(O)C(O)c1csc2ccccc12 (configuration not stated) : what is it?
stdout: 89 to 91 °C

* * *

attribute-measured: melting point

Please review the following examples before continuing.
>>> data_value("CC(=O)Oc1ccc(CCC2CC(=O)OC(=O)C2)cc1")
"97 to 99 °C"
>>> data_value("COc1ccc(C(=O)N2CCN(Cc3ccccc3)c3ccccc32)cc1OC")
"111 to 112 °C"
>>> data_value("CC1(c2ccc([N+](=O)[O-])cc2)C(=O)Nc2cc(Cl)ccc2C1=O (centres undefined)")
"209 to 210 °C"
>>> data_value("CC(=O)c1cc(Br)c(OCCCBr)c(Br)c1")
"87 to 88 °C"
>>> data_value("COCCOc1c2ccccc2c(C=O)c2ccccc12")
"87 to 88 °C"

stdin: Which melting point value belongs to CC(C)C(C(N)=S)N(C)C(=O)OCc1ccccc1 (centres undefined) ?
stdout: 130 °C

stdin: Fill blank: measured melting point of the compound `CC(C)Cn1c(CN2C(=O)c3ccccc3C2=O)c(-c2ccccc2)c2cc(OCc3ccccc3)ccc2c1=O` is ____.
stdout: 113 to 114 °C

stdin: Reported melting point for `O=C(O)CN1C(=O)C(=Cc2ccncc2)SC1=S` : what is it?
stdout: 263 to 266 °C

stdin: Fill in: melting point of `O=c1oc(-c2ccc([N+](=O)[O-])cc2)nn1-c1ccc(C(F)(F)F)cc1` is ___
stdout: 160 to 163 °C
